System: NCI-H719 tumor spheroids, viability
Experiment: Anticancer human tumor NCI-H719 cell line growth inhibition;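 also: spheroids exposed to compounds for seven days; percent viability relative to DMSO vehicle control as 100%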
Settings: second compound 10 µM; first compound 0.0316 µM; hits give low values; spheroids with HUVEC and MSC
metric: viability, T/C

Solved cases (5 shown):
{"compound": "CC(C)n1c(=O)n(C)c2cnc3cc(F)c(-c4ccc(OCCCN5CCCCC5)nc4)cc3c21 + Cn1nnc2c(C(N)=O)ncn2c1=O", "target_of_assay": "NCI-H719 tumor spheroids, viability", "viability, T/C": "109%"}
{"compound": "[2H]c1nc(C)nc([2H])c1-c1cc(NC[C@@H](C)c2cccc3c(C(=O)NC)ccnc23)ncn1 + Cn1nnc2c(C(N)=O)ncn2c1=O", "target_of_assay": "NCI-H719 tumor spheroids, viability", "viability, T/C": "103%"}
{"compound": "Cc1cc(C)c(CNC(=O)c2cc(-c3ccc(CN4CCOCC4)cc3)cc3c2cnn3C2CCCC2)c(=O)[nH]1 + Cn1nnc2c(C(N)=O)ncn2c1=O", "target_of_assay": "NCI-H719 tumor spheroids, viability", "viability, T/C": "105%"}
{"compound": "COc1cc(C)[nH]c(=O)c1CN1CCc2c(Cl)cc(C(OC)C3COC3)c(Cl)c2C1=O (stereo unspecified) + Cn1nnc2c(C(N)=O)ncn2c1=O", "target_of_assay": "NCI-H719 tumor spheroids, viability", "viability, T/C": "110%"}
{"compound": "COc1ccc([C@@H](O)c2cc(-c3ncnc4cc(N5CCOCC5)ccc34)c(F)cc2Cl)nn1 + Cn1nnc2c(C(N)=O)ncn2c1=O", "target_of_assay": "NCI-H719 tumor spheroids, viability", "viability, T/C": "99.2%"}

Consider the record given below.
Request: Record lookup: for NCI-H719 tumor spheroids, viability, what viability, T/C belongs to CC1COCCN1c1cc(-c2ccnn2C)c2ccnc(-c3ccn[nH]3)c2n1 (stereo unspecified) + Cn1nnc2c(C(N)=O)ncn2c1=O ?
Result: 63.1%
